# Test target: Alpha-1D adrenergic receptor (Homo sapiens)
# Sequence (P25100 whole entry): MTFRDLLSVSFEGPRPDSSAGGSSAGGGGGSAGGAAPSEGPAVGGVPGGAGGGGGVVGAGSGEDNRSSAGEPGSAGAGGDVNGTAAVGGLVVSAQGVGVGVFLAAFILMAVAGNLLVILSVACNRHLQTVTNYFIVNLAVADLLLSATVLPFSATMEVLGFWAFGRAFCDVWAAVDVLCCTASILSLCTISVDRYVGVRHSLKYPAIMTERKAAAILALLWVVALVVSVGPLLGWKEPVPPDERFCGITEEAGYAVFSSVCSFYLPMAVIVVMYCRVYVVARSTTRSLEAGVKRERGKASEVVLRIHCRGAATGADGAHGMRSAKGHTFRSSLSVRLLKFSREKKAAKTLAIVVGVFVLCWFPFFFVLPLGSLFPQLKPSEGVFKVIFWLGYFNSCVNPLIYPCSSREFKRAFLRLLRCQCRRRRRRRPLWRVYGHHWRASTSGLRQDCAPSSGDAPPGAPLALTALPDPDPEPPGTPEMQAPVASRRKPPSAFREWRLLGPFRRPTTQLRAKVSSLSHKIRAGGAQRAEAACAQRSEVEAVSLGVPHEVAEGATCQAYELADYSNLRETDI
# Assay info: Binding affinity against Alpha-1D adrenergic receptor (recombinant human receptor) using [3H]-prazosin.
pKi: −log10 of the molar value.
Quantity measured: pKi

Consider the worked cases shown below.
> print(dat)
                                   molecule                               test.target  reported
1  COC(=O)C1=C(C)N=C(C)N(CCCCCN2CCC(c3ccccc3)(c3ccccc3)CC2)C1c1ccc(F)c(F)c1 (centres undefined)  Alpha-1D adrenergic receptor (Homo sapiens)      6.74
2  COC(=O)C1(c2ccccc2)CCN(CCCCCN2C(C)=NC(C)=C(C(N)=O)C2c2ccc(F)cc2F)CC1 (centres undefined)  Alpha-1D adrenergic receptor (Homo sapiens)      6.16

1 = COC(=O)C1=C(C)N=C(C)N(CCCCCN2CCC(c3ccc(C)cc3)(c3ccccc3C)CC2)C1c1ccc(F)c(F)c1 (centres undefined)
2 = COC(=O)C1=C(C)N=C(C)N(CCC[C@H](C)CN2CCC(C#N)(c3ccccc3)CC2)C1c1ccc(F)c(F)c1 (some centres undefined)
Thinking about recorded pKi values, which is higher, 1 or 2 ? Return value: the label identifying the chosen record.
1

Origin of measurements: ChEMBL document CHEMBL1132111
